# testedTarget: T1, interleukin 18 binding protein (IL-18BP) (UniProt O95998 31-194)
# T1 sequence (looked up): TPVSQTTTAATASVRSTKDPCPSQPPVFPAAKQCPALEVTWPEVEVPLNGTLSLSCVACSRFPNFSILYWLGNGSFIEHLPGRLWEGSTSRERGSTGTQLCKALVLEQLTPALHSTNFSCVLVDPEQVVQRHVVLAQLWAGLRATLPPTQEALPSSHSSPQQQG
# procedureText: cell-based or functional assay
valueType: EC50 (pM) + 300 nM BP, HEK-blue re-screening

| binder | result |
| --- | --- |
| IL-18 variant G3Q, E6H, K53T, D54S, S55Y, N91Y, R104K (ligand) YFQKLHSKLSVIRNLNDQVLFIDQGNRPLFEDMTDSDMRDNAPRTIFIISMYTSYQPRGMAVTISVKSEKISTLSSENKIISFKEMNPPDYIKDTKSDIIFFQKSVPGHDNKMQFESSSYEGYFLASEKERDLFKLILKKEDELGDRSIMFTVQNED | 4.69 pM |
| IL-18 variant G3P, E6H, D54A, S55P, Q56K, T63S, N91M (ligand) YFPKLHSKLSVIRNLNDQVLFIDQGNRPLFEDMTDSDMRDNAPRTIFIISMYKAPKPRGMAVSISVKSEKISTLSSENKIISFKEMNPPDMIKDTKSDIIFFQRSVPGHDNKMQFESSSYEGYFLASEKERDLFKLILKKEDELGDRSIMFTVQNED | 8.23 pM |
| IL-18 variant G3P, E6K, D54Y, S55P, Q56H, T63S, N91S, R104Q (ligand) YFPKLKSKLSVIRNLNDQVLFIDQGNRPLFEDMTDSDMRDNAPRTIFIISMYKYPHPRGMAVSISVKSEKISTLSSENKIISFKEMNPPDSIKDTKSDIIFFQQSVPGHDNKMQFESSSYEGYFLASEKERDLFKLILKKEDELGDRSIMFTVQNED | 2.99 pM |
| IL-18 variant G3L, E6S, D54T, T63S, N91Y, R104Q (ligand) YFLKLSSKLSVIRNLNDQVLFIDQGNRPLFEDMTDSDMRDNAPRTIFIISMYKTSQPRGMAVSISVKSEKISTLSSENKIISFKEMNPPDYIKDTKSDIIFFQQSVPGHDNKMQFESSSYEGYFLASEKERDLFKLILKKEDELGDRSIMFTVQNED | 0.51 pM |
| IL-18 variant G3D, E6G, K53G, D54A, T63S, N91Y, R104Q (ligand) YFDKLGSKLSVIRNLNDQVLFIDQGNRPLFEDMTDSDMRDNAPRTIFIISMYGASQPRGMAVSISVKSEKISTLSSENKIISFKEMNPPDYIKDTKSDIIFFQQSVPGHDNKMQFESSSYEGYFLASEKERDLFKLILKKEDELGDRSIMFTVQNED | 3.11 pM |
| IL-18 variant G3P, E6V, K53A, D54W, S55P, T63S, N91L, R104K (ligand) YFPKLVSKLSVIRNLNDQVLFIDQGNRPLFEDMTDSDMRDNAPRTIFIISMYAWPQPRGMAVSISVKSEKISTLSSENKIISFKEMNPPDLIKDTKSDIIFFQKSVPGHDNKMQFESSSYEGYFLASEKERDLFKLILKKEDELGDRSIMFTVQNED | 15.8 pM |
| IL-18 variant G3P, E6K, D54R, S55P, T63A, N91V (ligand) YFPKLKSKLSVIRNLNDQVLFIDQGNRPLFEDMTDSDMRDNAPRTIFIISMYKRPQPRGMAVAISVKSEKISTLSSENKIISFKEMNPPDVIKDTKSDIIFFQRSVPGHDNKMQFESSSYEGYFLASEKERDLFKLILKKEDELGDRSIMFTVQNED | 10.1 pM |
